Test system: A549
Test: Anticancer activity against human A549 cells assessed as inhibition of cell growth incubated for 48 hrs by MTT assay
Format: functional, cell-based
Details: A549, 48 h
Reported IC50 maps to class as: low = under 10 µM, middle = from 10 µM up to 60 µM, high = 60 µM and over

Example cases with answers are listed next.
[[record]]
molecule = "CC1=NOC(=O)/C1=C/c1cn(-c2ccccc2)cc1-c1ccccc1"
class_assignment = "middle"

[[record]]
molecule = "CC1=NOC(=O)/C1=C/c1ccc[nH]1"
class_assignment = "high"

[[record]]
molecule = "COc1cccc2c1C(=O)c1c(O)c3c(c(O)c1C2=O)C[C@@](O)(C(=O)CO)C[C@@H]3O[C@H]1C[C@H](N)[C@H](O)[C@H](C)O1 [DOXORUBICIN]"
class_assignment = "low"


Query :: Which of the defined bands does the recorded IC50 of CC1=NOC(=O)/C1=C/c1c(-c2ccccc2)[nH]c2ccccc12 sit within?
Result :: middle

Query :: Place this molecule in its band: CC1=NOC(=O)/C1=C/c1c(O)ccc2ccccc12
Result :: middle

Query :: # bin lookup: classify CC1=NOC(=O)C1Cc1cccs1 (centres undefined) by its IC50
Result :: middle

Query :: Just checking, what class would you give CC1=NOC(=O)/C1=C/c1c(Cl)[nH]c2ccccc12 here?
Result :: low

Query :: Input CC1=NOC(=O)/C1=C/c1c[nH]c2ccccc12 ; output its category
Result :: high

Reference source for all entries: ChEMBL document CHEMBL5104212
